Test system: 898857-211-R-J1-PDC complex spheroids, growth % test/control;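 further: spheroids exposed to compound for seven days before readout; 100% = DMSO vehicle control wells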
Experiment: Anticancer human tumor 898857-211-R-J1-PDC patient-derived melanoma cell line growth inhibition [RAS]
Details: compound 0.01 µM; stronger effect = lower value
The entries below come with measured viability, T/C values attached.

Consider the worked cases shown below.
> print(dat)
                                   molecule                meas.value
1  Nc1ccn(C2OC(CO)C(O)C2(F)F)c(=O)n1 (centres undefined)  30.2% [middle of 4 runs]
2  C=CC(=O)N1CCN(c2nc(OCC3CCCN3C)nc3c(F)c(-c4nc(N)cc(C)c4C(F)(F)F)c(Cl)cc23)C(C)C1 (centres undefined)  108% [middle of 12 runs]
3  C=CC(=O)Nc1cc(Nc2nccc(-c3cn(C)c4ccccc34)n2)c(OC)cc1N(C)CCN(C)C  99.8% [middle of 4 runs]

--- query ---
Sample CC(C)n1nc(-c2ccc3oc(N)nc3c2)c2c(N)ncnc21 ; viability, T/C observed: 73.3% [middle of 4 runs]
